Data provenance: patent US20150313906A1

Test system: SU-DHL-6, a DLBCL line harboring a Y641N mutation in EZH2
Experiment: DLBCL cell growth (CellTiter-Glo) with BCL-2 inhibitor after Compound A pre-treatment, SU-DHL-6
Format: cell-based
Conditions: Homo sapiens; SU-DHL-6, Compound A 250 nM 72 h pre-treatment then 6 day co-treatment; read-out: gIC50
metric.name: IC50 (nM)

(P) CN(C)CC[C@H](CSc1ccccc1)Nc1ccc(S(=O)(=O)NC(=O)c2ccc(N3CCN(Cc4ccccc4-c4ccc(Cl)cc4)CC3)cc2)cc1[N+](=O)[O-]
(Q) CC1(C)CCC(c2ccc(Cl)cc2)=C(CN2CCN(c3ccc(C(=O)NS(=O)(=O)c4ccc(N[C@H](CCN5CCOCC5)CSc5ccccc5)c(S(=O)(=O)C(F)(F)F)c4)cc3)CC2)C1
Between P and Q , which one shows the smaller IC50 number? Identify your pick by its label.
Q

====

Test system: KARPAS-422, a DLBCL line harboring a Y641N mutation in EZH2
Assay: DLBCL cell growth (CellTiter-Glo) with BCL-2 inhibitor after Compound A pre-treatment, KARPAS-422
Details: read-out: gIC50; KARPAS-422, Compound A 500 nM 72 h pre-treatment then 6 day co-treatment
metric.name: IC50 (nM)

(1) CN(C)CC[C@H](CSc1ccccc1)Nc1ccc(S(=O)(=O)NC(=O)c2ccc(N3CCN(Cc4ccccc4-c4ccc(Cl)cc4)CC3)cc2)cc1[N+](=O)[O-] [ABT-737]
(2) CC1(C)CCC(c2ccc(Cl)cc2)=C(CN2CCN(c3ccc(C(=O)NS(=O)(=O)c4ccc(N[C@H](CCN5CCOCC5)CSc5ccccc5)c(S(=O)(=O)C(F)(F)F)c4)cc3)CC2)C1 [ABT-263]
// max by IC50 over [ 1 , 2 ] Identify your pick by its label.
1
(1: 1.1 nM, 2: 0.4 nM)
